# condition: octanol/water at 20° C.
Overview of recorded Log partition coefficient for various compounds
observable: Log partition coefficient

[
  {
    "compound": "Cc1ccc(S(N)(=O)=O)cc1 [p-methylbenzene sulphonamide]",
    "recordedMeasurement": 0.82
  },
  {
    "compound": "Cc1cccc(S(N)(=O)=O)c1 [m-methylbenzene sulphonamide]",
    "recordedMeasurement": 0.85
  },
  {
    "compound": "NC(=O)c1cccnc1 [niacinamide, reference compound]",
    "recordedMeasurement": 1.37
  },
  {
    "compound": "O=C(O)c1ccccc1O [salicylic acid, reference compound]",
    "recordedMeasurement": 2.26
  },
  {
    "compound": "NS(=O)(=O)c1cccc([N+](=O)[O-])c1 [m-nitrobezene sulphonamide]",
    "recordedMeasurement": 0.55
  }
]
